Measured values drawn from patent US11787785B2 for this set.

For each entry below, report its remaining activity at 25 µM value.
- Target Entity: WIZ protein (HiBit-WIZ fusion protein) (Homo sapiens, UniProt O95785+Q96SW2)
- Construct: expressed in transfected cells
- Sequence (O95785 whole entry, the tested form may be a part): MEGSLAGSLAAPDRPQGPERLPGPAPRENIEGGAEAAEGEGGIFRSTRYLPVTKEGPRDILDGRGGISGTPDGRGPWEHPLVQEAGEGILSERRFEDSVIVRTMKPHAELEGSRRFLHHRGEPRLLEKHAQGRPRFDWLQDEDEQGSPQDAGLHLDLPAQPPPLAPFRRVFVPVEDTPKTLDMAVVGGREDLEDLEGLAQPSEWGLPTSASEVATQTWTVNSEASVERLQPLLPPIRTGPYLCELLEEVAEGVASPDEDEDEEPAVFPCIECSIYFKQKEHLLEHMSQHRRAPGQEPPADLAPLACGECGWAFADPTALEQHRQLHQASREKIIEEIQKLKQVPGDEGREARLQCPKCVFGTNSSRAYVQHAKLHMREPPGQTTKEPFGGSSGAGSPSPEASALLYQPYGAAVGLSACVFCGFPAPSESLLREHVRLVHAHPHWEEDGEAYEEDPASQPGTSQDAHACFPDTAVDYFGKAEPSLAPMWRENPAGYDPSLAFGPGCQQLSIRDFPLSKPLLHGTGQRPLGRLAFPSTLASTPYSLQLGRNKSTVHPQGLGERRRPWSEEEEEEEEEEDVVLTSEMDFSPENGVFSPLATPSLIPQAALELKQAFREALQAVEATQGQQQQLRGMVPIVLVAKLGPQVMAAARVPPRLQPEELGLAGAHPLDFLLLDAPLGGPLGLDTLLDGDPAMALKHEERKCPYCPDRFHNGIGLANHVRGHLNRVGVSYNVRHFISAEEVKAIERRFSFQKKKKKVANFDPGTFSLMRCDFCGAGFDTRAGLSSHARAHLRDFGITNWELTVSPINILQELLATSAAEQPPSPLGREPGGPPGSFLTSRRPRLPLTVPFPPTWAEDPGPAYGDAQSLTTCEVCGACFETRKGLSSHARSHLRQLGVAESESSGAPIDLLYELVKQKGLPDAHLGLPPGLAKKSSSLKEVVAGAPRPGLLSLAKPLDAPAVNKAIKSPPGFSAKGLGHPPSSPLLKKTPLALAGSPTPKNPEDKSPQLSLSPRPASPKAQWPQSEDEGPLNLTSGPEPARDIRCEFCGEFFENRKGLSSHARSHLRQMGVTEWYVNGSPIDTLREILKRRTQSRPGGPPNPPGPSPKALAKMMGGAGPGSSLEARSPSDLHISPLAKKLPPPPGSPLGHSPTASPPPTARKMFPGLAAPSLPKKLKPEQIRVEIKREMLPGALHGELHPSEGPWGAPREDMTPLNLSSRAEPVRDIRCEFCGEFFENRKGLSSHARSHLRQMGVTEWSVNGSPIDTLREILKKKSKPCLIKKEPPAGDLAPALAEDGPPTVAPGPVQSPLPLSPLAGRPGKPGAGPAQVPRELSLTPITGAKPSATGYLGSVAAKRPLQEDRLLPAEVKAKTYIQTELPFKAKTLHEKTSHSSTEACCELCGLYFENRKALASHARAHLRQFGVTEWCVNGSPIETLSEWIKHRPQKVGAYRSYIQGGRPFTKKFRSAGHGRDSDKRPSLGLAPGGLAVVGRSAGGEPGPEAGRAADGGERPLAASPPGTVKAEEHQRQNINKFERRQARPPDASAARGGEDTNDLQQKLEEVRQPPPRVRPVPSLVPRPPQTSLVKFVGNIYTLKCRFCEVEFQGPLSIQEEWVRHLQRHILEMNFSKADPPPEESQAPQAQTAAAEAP
- Sequence (Q96SW2 whole entry, the tested form may be a part): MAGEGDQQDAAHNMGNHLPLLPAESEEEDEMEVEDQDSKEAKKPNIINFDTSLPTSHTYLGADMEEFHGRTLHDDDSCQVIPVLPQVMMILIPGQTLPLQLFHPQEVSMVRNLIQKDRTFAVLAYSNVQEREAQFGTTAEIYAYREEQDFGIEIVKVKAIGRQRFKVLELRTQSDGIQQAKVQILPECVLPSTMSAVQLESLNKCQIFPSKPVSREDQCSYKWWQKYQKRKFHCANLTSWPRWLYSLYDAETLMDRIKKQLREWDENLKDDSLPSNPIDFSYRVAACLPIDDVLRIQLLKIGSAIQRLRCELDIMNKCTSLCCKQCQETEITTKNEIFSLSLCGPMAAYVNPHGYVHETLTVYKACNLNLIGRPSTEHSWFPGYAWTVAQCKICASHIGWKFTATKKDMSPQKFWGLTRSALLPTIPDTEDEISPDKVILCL
- Sequence (Q16531 whole entry partner, the tested form may be a part): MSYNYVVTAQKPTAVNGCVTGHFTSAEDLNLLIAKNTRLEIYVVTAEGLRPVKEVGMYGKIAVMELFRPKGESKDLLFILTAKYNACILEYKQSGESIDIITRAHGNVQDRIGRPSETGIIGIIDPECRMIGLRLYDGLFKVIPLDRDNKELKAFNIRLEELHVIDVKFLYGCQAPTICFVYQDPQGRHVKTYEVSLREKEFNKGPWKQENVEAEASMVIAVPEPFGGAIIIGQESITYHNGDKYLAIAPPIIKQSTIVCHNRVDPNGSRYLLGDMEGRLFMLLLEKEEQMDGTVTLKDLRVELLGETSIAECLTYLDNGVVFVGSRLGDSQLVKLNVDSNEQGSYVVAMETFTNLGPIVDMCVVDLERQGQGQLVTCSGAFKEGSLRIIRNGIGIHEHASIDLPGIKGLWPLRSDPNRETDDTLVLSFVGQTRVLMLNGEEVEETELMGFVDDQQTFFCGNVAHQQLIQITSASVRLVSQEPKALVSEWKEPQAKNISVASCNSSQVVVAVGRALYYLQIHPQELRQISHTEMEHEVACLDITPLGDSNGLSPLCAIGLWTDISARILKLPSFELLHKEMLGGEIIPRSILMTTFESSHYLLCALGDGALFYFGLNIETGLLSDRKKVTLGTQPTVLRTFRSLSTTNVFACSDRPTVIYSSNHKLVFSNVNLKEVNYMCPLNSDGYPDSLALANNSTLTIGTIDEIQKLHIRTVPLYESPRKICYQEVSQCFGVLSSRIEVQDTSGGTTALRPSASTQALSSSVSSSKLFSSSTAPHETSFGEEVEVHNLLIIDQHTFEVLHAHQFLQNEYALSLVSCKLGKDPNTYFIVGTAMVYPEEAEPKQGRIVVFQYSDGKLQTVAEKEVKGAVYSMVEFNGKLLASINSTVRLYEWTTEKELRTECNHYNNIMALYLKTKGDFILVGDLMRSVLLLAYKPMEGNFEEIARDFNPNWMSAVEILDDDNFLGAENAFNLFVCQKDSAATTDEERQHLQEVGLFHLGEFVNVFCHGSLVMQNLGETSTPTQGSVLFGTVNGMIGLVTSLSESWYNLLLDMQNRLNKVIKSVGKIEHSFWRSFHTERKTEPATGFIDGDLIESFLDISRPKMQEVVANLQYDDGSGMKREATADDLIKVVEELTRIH
- Assay Name: Quantification of WIZ protein levels in HiBit tag fusion protein assay (WIZ HiBit assay in 293T cells)
- Assay type: cell-based
- Details: HEK-293T, DMSO-normalized, curve-fitted percentage of WIZ-HiBit remaining at 25 uM; 293T cells; read-out: WIZ Amax

C[C@@H]1CN(Cc2ccn3ncc(N4CCC(=O)NC4=O)c3c2)CCN1CC1CCOCC1	25%

Quick batch: remaining activity at 25 µM for everything below.
1. O=C1CCN(c2cnn3ccc(CC4CCN(Cc5ccc(C(F)(F)F)nc5)CC4)cc23)C(=O)N1
2. Cn1nccc1CN1CCN(Cc2ccn3ncc(N4CCC(=O)NC4=O)c3c2)CC1
3. O=C1CCN(c2cnn3ccc(CC4CCN(CC(F)(F)F)CC4)cc23)C(=O)N1
4. O=C1CCN(c2cnn3ccc(CC4CCN(S(=O)(=O)N5CCCC5)CC4)cc23)C(=O)N1
5. C[C@H]1C[C@H](Cc2ccn3ncc(N4CCC(=O)NC4=O)c3c2)CCN1CC1CCC(C)(C)CC1
6. C[C@H]1CN(Cc2ccn3ncc(N4CCC(=O)NC4=O)c3c2)CCN1C1CC2(CCC2)C1
7. C[C@@H]1C[C@H](Cc2ccn3ncc(N4CCC(=O)NC4=O)c3c2)CCN1CC1CCC(F)(F)CC1

1: 36%; 2: 52%; 3: 20%; 4: 32%; 5: 10%; 6: 12%; 7: 17%

----------
- Target Entity: WIZ protein (HiBit-WIZ fusion protein) (Homo sapiens, UniProt O95785+Q96SW2)
- Construct: expressed in transfected cells
- Assay Name: Quantification of WIZ protein levels in HiBit tag fusion protein assay (WIZ HiBit assay in 293T cells)
- Format: cell-based
- Details: WIZ HiBit assay in 293T cells; 10-point, 5-fold dose response, highest concentration 25 μM, about 18 hours; read-out: WIZ AC50
Simple rule here: DC50 less than 60 nM is yes (1), otherwise no (0).

# example entries with known answers
C[C@H]1CN(Cc2ccn3ncc(N4CCC(=O)NC4=O)c3c2)CCN1C1CC2(COC2)C1	no (0)
CC(C)CN1CC[C@@H](Cc2ccn3ncc(-n4ccc(=O)[nH]c4=O)c3c2)C[C@@H]1C	no (0)
C[C@H]1C[C@H](Cc2ccn3ncc(N4CCC(=O)NC4=O)c3c2)CCN1S(=O)(=O)NC1CCCC1	no (0)
Cn1nccc1CN1CCC(Cc2ccn3ncc(N4CCC(=O)NC4=O)c3c2)CC1	no (0)
O=C1CCN(c2cnn3ccc(CC4CCN(CC5CCCOC5)CC4)cc23)C(=O)N1 (stereo not drawn)	yes (1)

Determine whether this compound shows DC50 lower than 60 nM (ties excluded): O=C1CCN(c2cnn3ccc(CC4CCNCC4)cc23)C(=O)N1 no (0)

Determine whether this compound shows DC50 lower than 60 nM (ties excluded): Cn1nccc1CN1CCN(Cc2ccn3ncc(N4CCC(=O)NC4=O)c3c2)CC1 no (0)

Determine whether this compound shows DC50 lower than 60 nM (ties excluded): C[C@H]1C[C@H](Cc2ccn3ncc(-n4cc(F)c(=O)[nH]c4=O)c3c2)CCN1CC1CCC(F)(F)CC1 yes (1)

Determine whether this compound shows DC50 lower than 60 nM (ties excluded): O=C1CCN(c2cnn3ccc(CN4CCN(CC5CCCC5)CC4)cc23)C(=O)N1 yes (1)

----------
- Target Entity: WIZ protein (HiBit-WIZ fusion protein) (Homo sapiens, UniProt O95785+Q96SW2)
- Construct: expressed in transfected cells
- Assay Name: Quantification of WIZ protein levels in HiBit tag fusion protein assay (WIZ HiBit assay in 293T cells)
- Assay type: cell-based
- Details: HEK-293T, DMSO-normalized, curve-fitted percentage of WIZ-HiBit remaining at 25 uM; 293T cells; read-out: WIZ Amax
Measured Endpoint: remaining activity at 25 µM (%)
Give bare numbers, in %.

For orientation, consider the following solved cases.
O=C1CCN(c2cnn3ccc(CC4CCN(CC5(F)CCCCC5)CC4)cc23)C(=O)N1	22
CC(C)CN1CCN(Cc2ccn3ncc(N4CCC(=O)NC4=O)c3c2)C[C@@H]1C(C)C	100
O=C1CCN(c2cnn3ccc(CN4CCCN(CC5CCCCC5)CC4)cc23)C(=O)N1	59
C[C@@H]1C[C@@H](Cc2ccn3ncc(N4CCC(=O)NC4=O)c3c2)CCN1CC1CCOCC1	22
CCN1CCC(Cc2ccn3ncc(N4CCC(=O)NC4=O)c3c2)CC1	23
C[C@H]1C[C@H](Cc2ccn3ncc(-n4ccc(=O)[nH]c4=O)c3c2)CCN1CC1CCC(F)(F)CC1	11
C[C@H]1CN(CC2CCC2)CCN1Cc1ccn2ncc(N3CCC(=O)NC3=O)c2c1	55

Entry CO[C@H]1CC[C@H](CN2CCN(Cc3ccn4ncc(N5CCC(=O)NC5=O)c4c3)CC2)CC1 has what remaining activity at 25 µM? 18

----------
- Target Entity: WIZ protein (HiBit-WIZ fusion protein) (Homo sapiens, UniProt O95785+Q96SW2)
- Construct: expressed in transfected cells
- Assay Name: Quantification of WIZ protein levels in HiBit tag fusion protein assay (WIZ HiBit assay in 293T cells)
- Type: cell-based
- Details: HEK-293T, 100 − Amax, at 25 uM; 293T cells; read-out: % degradation of WIZ (100 − Amax)
- Method: The HiBit system from Promega was used to develop high-throughput and quantitative assays to measure changes in WIZ protein levels in response to compounds. […] The complementary fragment of Nanoluciferase (known as LgBit, from Promega), was added to the HiBit tag to form an active Nanoluciferase enzyme whose activity can be precisely measured. In this way, the levels of a fusion protein with the HiBit tag can be quantified in cell lysates. […]
// classify(record): look up Dmax at 25 µM in ranges lower range (below 40%), middle range (40% to below 80%), upper range (80% or more)

O=C1CCN(c2cnn3ccc(CN4C[C@H]5CC[C@@H](C4)N5Cc4cccnc4)cc23)C(=O)N1 [Example 253]	lower range

Band of C[C@H]1C[C@H](Cc2ccn3ncc(N4CCC(=O)NC4=O)c3c2)CCN1C[C@H]1CC[C@H](C(F)(F)F)CC1 [Example 305] ? upper range

Band of C[C@H]1CN(CC2CCCO2)CCN1Cc1ccn2ncc(N3CCC(=O)NC3=O)c2c1 (stereo partly drawn) [Example 225] ? lower range

Band of CN1CCC(Cc2ccn3ncc(N4CCC(=O)NC4=O)c3c2)CC1 [Example 49] ? middle range

----------
For each entry below, report its remaining activity at 25 µM value.
- Target Entity: WIZ protein (HiBit-WIZ fusion protein) (Homo sapiens, UniProt O95785+Q96SW2)
- Construct: expressed in transfected cells
- Assay Name: Quantification of WIZ protein levels in HiBit tag fusion protein assay (WIZ HiBit assay in 293T cells)
- Assay type: cell-based
- Details: HEK-293T, DMSO-normalized, curve-fitted percentage of WIZ-HiBit remaining at 25 uM; 293T cells; read-out: WIZ Amax
Answers are plain numbers, in %.

For orientation, consider the following solved cases.
O=C1CCN(c2cnn3ccc(CN4CCN(C(=O)C5(C(F)(F)F)CC5)CC4)cc23)C(=O)N1	71
O=C1CCN(c2cnn3ccc(CC4CCN(S(=O)(=O)C5CCCCC5)CC4)cc23)C(=O)N1	8

Quick batch: remaining activity at 25 µM for everything below.
1. O=C1CCN(c2cnn3ccc(CC4CCN(CCC5CCCCC5)CC4)cc23)C(=O)N1
2. COc1ccc(CN2CCC(Cc3ccn4ncc(N5CCC(=O)NC5=O)c4c3)CC2)cc1

1. 11
2. 38

----------
- Target Entity: WIZ protein (HiBit-WIZ fusion protein) (Homo sapiens, UniProt O95785+Q96SW2)
- Construct: expressed in transfected cells
- Assay Name: Quantification of WIZ protein levels in HiBit tag fusion protein assay (WIZ HiBit assay in 293T cells)
- Assay type: cell-based
- Details: WIZ HiBit assay in 293T cells; 10-point, 5-fold dose response, highest concentration 25 μM, about 18 hours; read-out: WIZ AC50
Measured Endpoint: DC50

For orientation, consider the following solved cases.
O=C1CCN(c2cnn3ccc(CC4CCN(CC(CO)CO)CC4)cc23)C(=O)N1	> 25 µM
C[C@H]1C[C@H](Cc2ccn3ncc(N4CCC(=O)NC4=O)c3c2)CCN1C(=O)N(C)C	0.018 µM
CC(c1cccnc1)N1CCN(Cc2ccn3ncc(N4CCC(=O)NC4=O)c3c2)CC1 (centres unmarked)	1.24 µM
CS(=O)(=O)N1CCC(Cc2ccn3ncc(N4CCC(=O)NC4=O)c3c2)CC1	2 µM
C[C@H]1CN(Cc2ccn3ncc(N4CCC(=O)NC4=O)c3c2)CCN1CC1CC2(C1)CC(F)(F)C2	0.049 µM
C[C@H]1C[C@H](Cc2ccn3ncc(N4CCC(=O)NC4=O)c3c2)CCN1C(=O)C1CCN(C)CC1	1.7 µM

Quick batch: DC50 for everything below.
1. C[C@H]1CN(Cc2ccn3ncc(N4CCC(=O)NC4=O)c3c2)CCN1CC1CCCC1
2. CC(C)CN1CC(Cc2ccn3ncc(N4CCC(=O)NC4=O)c3c2)C1
3. O=C1CCN(c2cnn3ccc(CC4CCN(CC5CCCCCC5)CC4)cc23)C(=O)N1
4. CC(C)(C1CCC(F)(F)CC1)N1CCC(Cc2ccn3ncc(N4CCC(=O)NC4=O)c3c2)CC1
5. CC(C)(C)CN1CCC(Cc2ccn3ncc(N4CCC(=O)NC4=O)c3c2)CC1
6. C[C@H]1CN(CC2CCCO2)CCN1Cc1ccn2ncc(N3CCC(=O)NC3=O)c2c1 (some centres unmarked)
7. COC(C)(C)CN1CCC(Cc2ccn3ncc(N4CCC(=O)NC4=O)c3c2)CC1

0.029 µM
4.3 µM
0.008 µM
0.007 µM
0.044 µM
1.05 µM
2.16 µM

Quick batch: DC50 for everything below.
1. Cc1ccccc1CN1CCN(Cc2ccn3ncc(N4CCC(=O)NC4=O)c3c2)CC1
2. C[C@H]1CN(Cc2ccn3ncc(N4CCC(=O)NC4=O)c3c2)CCN1C1CC2(CCC2)C1
3. O=C1CCN(c2cnn3ccc(CC4CCN(CC5COC5)CC4)cc23)C(=O)N1
4. C[C@@H]1C[C@@H](Cc2ccn3ncc(N4CCC(=O)NC4=O)c3c2)CCN1CC1CCC(F)(F)CC1

["0.286 µM", "0.006 µM", "0.109 µM", "0.009 µM"]
